Tested target: CYP2C9 (Homo sapiens)
Sequence (P11712 whole entry): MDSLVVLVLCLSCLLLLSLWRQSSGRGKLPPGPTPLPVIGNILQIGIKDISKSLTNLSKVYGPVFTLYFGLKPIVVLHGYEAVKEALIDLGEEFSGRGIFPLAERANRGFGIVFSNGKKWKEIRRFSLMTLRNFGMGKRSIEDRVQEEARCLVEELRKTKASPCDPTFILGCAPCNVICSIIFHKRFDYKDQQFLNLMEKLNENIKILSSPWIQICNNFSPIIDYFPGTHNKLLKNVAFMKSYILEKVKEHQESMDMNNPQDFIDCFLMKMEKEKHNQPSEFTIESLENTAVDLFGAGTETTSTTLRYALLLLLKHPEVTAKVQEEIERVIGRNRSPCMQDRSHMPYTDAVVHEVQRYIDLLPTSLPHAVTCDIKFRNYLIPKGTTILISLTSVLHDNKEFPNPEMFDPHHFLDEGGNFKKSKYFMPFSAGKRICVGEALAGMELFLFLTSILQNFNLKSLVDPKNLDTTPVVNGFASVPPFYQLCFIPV
Assay method text: Inhibition of CYP2C9 (unknown origin) at 10 uM relative to control
Assay type: ADME
Kind request: treat 20% as inclusive, so inhibition at 10 µM at 20% or higher is yes, anything lower is no.

# Chemical structure, Tested target, Assigned category
data = [
    ("NC(=O)c1sc2nccc(Oc3ccc(CCO)cc3)c2c1N", "CYP2C9 (Homo sapiens)", "no"),
    ("Cc1cc(Oc2ccc(CCCC(=O)N(C)C)cc2Cl)c2c(N)c(C(N)=O)sc2n1", "CYP2C9 (Homo sapiens)", "yes"),
    ("NC(=O)c1sc2nccc(Oc3ccccc3)c2c1N", "CYP2C9 (Homo sapiens)", "no"),
    ("Cc1cc(Oc2ccc(CCCC(=O)N(C)C)cc2F)c2c(N)c(C(N)=O)sc2n1", "CYP2C9 (Homo sapiens)", "no"),
    ("NC(=O)c1sc2nccc(N3CCCN(c4ccccc4)CC3)c2c1N", "CYP2C9 (Homo sapiens)", "yes"),
    ("NC(=O)c1sc2nccc(OC3CCOCC3)c2c1N", "CYP2C9 (Homo sapiens)", "no"),
    ("CN(C)c1ccnc2sc(C(N)=O)c(N)c12", "CYP2C9 (Homo sapiens)", "no"),
]

* * *

Assay method text: Cmax in F344 rat at 30 mg/kg, po
Format: ADME, organism-based
Set-up: dose 30 mg/kg, route oral
Test conditions: in vivo

# Chemical structure, Cmax, µg/mL
measured = [
    ("NC(=O)c1sc2nccc(OC3CCOCC3)c2c1N", 10.4),
]

* * *

Assay method text: AUC (0 to 8 hrs) in F344 rat at 30 mg/kg, po
Format: ADME, organism-based
Parameters: time < 8 hr, dose 30 mg/kg, route oral
Test conditions: in vivo
Endpoint: AUC(0-t) at 8 h (ng·h/mL)

# Chemical structure, Measured number
measured = [
    ("NC(=O)c1sc2nccc(OC3CCOCC3)c2c1N", 29800),
]

* * *

Tested target: CYP3A4 (Homo sapiens, UniProt P08684)
Sequence (P08684 whole entry): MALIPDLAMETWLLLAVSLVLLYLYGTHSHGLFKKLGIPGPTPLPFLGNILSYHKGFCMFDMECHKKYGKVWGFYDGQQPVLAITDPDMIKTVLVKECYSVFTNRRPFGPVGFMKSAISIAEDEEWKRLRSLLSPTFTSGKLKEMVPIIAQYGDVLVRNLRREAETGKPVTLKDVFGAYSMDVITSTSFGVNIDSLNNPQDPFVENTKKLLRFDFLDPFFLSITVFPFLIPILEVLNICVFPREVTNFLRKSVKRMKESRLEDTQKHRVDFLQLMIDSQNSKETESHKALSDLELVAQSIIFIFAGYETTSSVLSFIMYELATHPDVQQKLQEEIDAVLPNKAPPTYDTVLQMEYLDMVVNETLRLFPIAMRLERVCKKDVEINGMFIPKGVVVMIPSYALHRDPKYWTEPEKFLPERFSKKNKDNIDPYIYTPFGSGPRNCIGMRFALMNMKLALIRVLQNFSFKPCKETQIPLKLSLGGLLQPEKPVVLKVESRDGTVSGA
Assay method text: in vitro
Test conditions: human liver microsomes
Description: Time dependent inhibition of CYP3A4 in human liver microsomes assessed as enzyme residual activity at 100 uM relative to control
In plain terms, low activity at 100 µM, meaning strictly below 50%, gives yes, and everything else gives no.

# Chemical structure, Tested target, Assigned category
measured = [
    ("NC(=O)c1sc2nccc(Oc3ccc(CCO)cc3)c2c1N", "CYP3A4 (Homo sapiens, UniProt P08684)", "no"),
    ("NC(=O)c1sc2nccc(OC3CCOCC3)c2c1N", "CYP3A4 (Homo sapiens, UniProt P08684)", "no"),
    ("NC(=O)c1sc2nccc(N3CCCN(c4ccccc4)CC3)c2c1N", "CYP3A4 (Homo sapiens, UniProt P08684)", "yes"),
    ("Cc1cc(Oc2ccc(CCCC(=O)N(C)C)cc2F)c2c(N)c(C(N)=O)sc2n1", "CYP3A4 (Homo sapiens, UniProt P08684)", "yes"),
    ("Cc1cc(Oc2ccc(CCCC(=O)N(C)C)cc2Cl)c2c(N)c(C(N)=O)sc2n1", "CYP3A4 (Homo sapiens, UniProt P08684)", "yes"),
    ("NC(=O)c1sc2nccc(Oc3ccccc3)c2c1N", "CYP3A4 (Homo sapiens, UniProt P08684)", "no"),
]

* * *

Assay method text: Metabolic stability in human liver microsomes assessed as parent compound remaining after 30 mins
Assay type: ADME, Microsome
Test conditions: read-out: Stability

# Compound, remaining at 0.5 h (%)
data = [
    ("NC(=O)c1sc2nccc(OC3CCOCC3)c2c1N", 92),
    ("Cc1cc(Oc2ccc(CCCC(=O)N(C)C)cc2F)c2c(N)c(C(N)=O)sc2n1", 60),
    ("Cc1cc(Oc2ccc(CCCC(=O)N(C)C)cc2Cl)c2c(N)c(C(N)=O)sc2n1", 25),
    ("C[C@H]1CCCC[C@@H]1Oc1ccnc2sc(C(N)=O)c(N)c12 (relative stereo)", 20),
    ("NC(=O)c1sc2nccc(Oc3ccc(CCO)cc3)c2c1N", 93),
    ("NC(=O)c1sc2nccc(OC3CCCCC3)c2c1N", 1),
    ("NC(=O)c1sc2nccc(Oc3ccccc3)c2c1N", 11),
]
